# target: HeLa cell extract proteins (Homo sapiens, UniProt P11940)
# Construct: endogenous in cells; host or cells: HeLa cell extract
# Sequence (P11940 whole entry): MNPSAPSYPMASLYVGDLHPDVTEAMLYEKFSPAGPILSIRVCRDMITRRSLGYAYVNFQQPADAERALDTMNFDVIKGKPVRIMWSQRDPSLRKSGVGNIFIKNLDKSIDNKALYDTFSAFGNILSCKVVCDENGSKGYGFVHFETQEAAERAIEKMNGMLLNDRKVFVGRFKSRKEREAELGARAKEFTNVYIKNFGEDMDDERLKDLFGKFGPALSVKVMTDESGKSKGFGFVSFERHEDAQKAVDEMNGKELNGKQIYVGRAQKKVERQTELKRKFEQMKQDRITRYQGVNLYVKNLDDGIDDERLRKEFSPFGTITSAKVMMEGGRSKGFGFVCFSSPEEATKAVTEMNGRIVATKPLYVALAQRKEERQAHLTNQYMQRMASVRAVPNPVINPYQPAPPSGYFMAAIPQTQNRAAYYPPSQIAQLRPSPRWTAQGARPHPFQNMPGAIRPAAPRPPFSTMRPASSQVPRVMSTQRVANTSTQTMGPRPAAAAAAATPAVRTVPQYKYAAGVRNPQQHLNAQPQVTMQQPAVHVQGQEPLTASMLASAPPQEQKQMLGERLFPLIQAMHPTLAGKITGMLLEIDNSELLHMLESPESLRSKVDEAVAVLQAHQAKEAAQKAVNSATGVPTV
# Format: binding
# test.conditions: HeLa; protein PABPC1
Checkbox rule: fold changes relative to vehicle control lower than 1 = met; fold changes relative to vehicle control not lower than 1 = not met.

Ask: Please indicate whether the reported fold changes relative to vehicle control of NCCOCCOCC(=O)Nc1nc2ncc(CNc3ccc(C(=O)NC(CCC(=O)O)C(=O)O)cc3)nc2c(=O)[nH]1 (stereo not drawn) is strictly below 1.
Result: met

Ask: Please indicate whether the reported fold changes relative to vehicle control of CCCCCCOc1cccc(Cc2cnc(N)nc2N)c1 is strictly below 1.
Result: not met

Ask: Please indicate whether the reported fold changes relative to vehicle control of Nc1nc2cccc(-c3ccccc3)c2n1Cc1ccc(Cl)c(Cl)c1 is strictly below 1.
Result: met

Ask: Please indicate whether the reported fold changes relative to vehicle control of CCCCCCOc1ccc(Cc2cnc(N)nc2N)cc1 is strictly below 1.
Result: met

Ask: Please indicate whether the reported fold changes relative to vehicle control of NCCCNc1ccc(C(=O)NC(CCC(=O)O)C(=O)O)cc1 (stereo not drawn) is strictly below 1.
Result: not met

---

# target: HeLa cell extract proteins (Homo sapiens)
# Construct: endogenous in cells; host or cells: HeLa cell extract
# Type: binding
# test.conditions: HeLa; protein TRIP13
readout.name: fold changes relative to vehicle control
The reply should be a number, written without any unit.

Ask: For the compound CCCCCCOc1ccc(Cc2cnc(N)nc2N)cc1 , give its measured fold changes relative to vehicle control value.
Result: 0.96

Ask: For the compound CCCCCCOc1cccc(Cc2cnc(N)nc2N)c1 , give its measured fold changes relative to vehicle control value.
Result: 1.17

Ask: For the compound NCCCNc1ccc(C(=O)NC(CCC(=O)O)C(=O)O)cc1 (stereo not drawn) , give its measured fold changes relative to vehicle control value.
Result: 1.09

Ask: For the compound Nc1nc2cccc(-c3ccccc3)c2n1Cc1ccc(Cl)c(Cl)c1 , give its measured fold changes relative to vehicle control value.
Result: 1.24

Ask: For the compound NCCOCCOCC(=O)Nc1nc2ncc(CNc3ccc(C(=O)NC(CCC(=O)O)C(=O)O)cc3)nc2c(=O)[nH]1 (stereo not drawn) , give its measured fold changes relative to vehicle control value.
Result: 0.94

Ask: For the compound Nc1nc2c(c(=O)[nH]1)N(C=O)C(CNc1ccc(C(=O)N[C@@H](CCC(=O)O)C(=O)O)cc1)CN2 (stereo partly drawn) , give its measured fold changes relative to vehicle control value.
Result: 0.92

---

# target: HeLa cell extract proteins (Homo sapiens)
# Construct: endogenous in cells; host or cells: HeLa cell extract
# Assay type: binding
# test.conditions: protein CTH; HeLa
readout.name: fold changes relative to vehicle control
The reply should be a number, written without any unit.

Ask: Fill in: fold changes relative to vehicle control on HeLa cell extract proteins (Homo sapiens), entry NCCCNc1ccc(C(=O)NC(CCC(=O)O)C(=O)O)cc1 (stereo not drawn)
Result: 0.87

Ask: Fill in: fold changes relative to vehicle control on HeLa cell extract proteins (Homo sapiens), entry Nc1nc2c(c(=O)[nH]1)N(C=O)C(CNc1ccc(C(=O)N[C@@H](CCC(=O)O)C(=O)O)cc1)CN2 (stereo partly drawn)
Result: 0.82

Ask: Fill in: fold changes relative to vehicle control on HeLa cell extract proteins (Homo sapiens), entry Nc1nc2cccc(-c3ccccc3)c2n1Cc1ccc(Cl)c(Cl)c1
Result: 0.91

Ask: Fill in: fold changes relative to vehicle control on HeLa cell extract proteins (Homo sapiens), entry CCCCCCOc1ccc(Cc2cnc(N)nc2N)cc1
Result: 0.86

Ask: Fill in: fold changes relative to vehicle control on HeLa cell extract proteins (Homo sapiens), entry CCCCCCOc1cccc(Cc2cnc(N)nc2N)c1
Result: 1.43

Ask: Fill in: fold changes relative to vehicle control on HeLa cell extract proteins (Homo sapiens), entry NCCOCCOCC(=O)Nc1nc2ncc(CNc3ccc(C(=O)NC(CCC(=O)O)C(=O)O)cc3)nc2c(=O)[nH]1 (stereo not drawn)
Result: 0.95

---

# System: phenylalanine-4-hydroxylase (PAH)
# assay: Multitargeted bead mixture competition
# Format: binding, L. major
# test.conditions: protein LMJF.28.1280 PHENYLALANINE-4-HYDROXYLASE,PHENYLALANINE-4-HYDROXYLASE, PUTATIVE
Field: fold change vs vehicle control. Provide a value for each of the compounds that follow.
The reply should be a number, written without any unit.

Ask: Fill in: fold change vs vehicle control on phenylalanine-4-hydroxylase (PAH), entry Nc1nc2c(c(=O)[nH]1)N(C=O)C(CNc1ccc(C(=O)N[C@@H](CCC(=O)O)C(=O)O)cc1)CN2 (stereo partly shown)
Result: 0.99

Ask: Fill in: fold change vs vehicle control on phenylalanine-4-hydroxylase (PAH), entry Nc1nc2[nH]cc(CCc3ccc(C(=O)N[C@@H](CCC(=O)O)C(=O)O)cc3)c2c(=O)[nH]1
Result: 0.28

Ask: Fill in: fold change vs vehicle control on phenylalanine-4-hydroxylase (PAH), entry NCCCNc1ccc(C(=O)NC(CCC(=O)O)C(=O)O)cc1 (stereo not shown)
Result: 1.02

Ask: Fill in: fold change vs vehicle control on phenylalanine-4-hydroxylase (PAH), entry NCCOCCOCC(=O)Nc1nc2ncc(CNc3ccc(C(=O)NC(CCC(=O)O)C(=O)O)cc3)nc2c(=O)[nH]1 (stereo not shown)
Result: 0.99

---

# target: HeLa cell extract proteins (Homo sapiens)
# Construct: endogenous in cells; host or cells: HeLa cell extract
# Type: binding
# test.conditions: HeLa; protein SEC23A
Checkbox rule: fold changes relative to vehicle control lower than 1 = true; fold changes relative to vehicle control not lower than 1 = false.

Ask: Please indicate whether the reported fold changes relative to vehicle control of Nc1nc2cccc(-c3ccccc3)c2n1Cc1ccc(Cl)c(Cl)c1 is strictly below 1.
Result: false

Ask: Please indicate whether the reported fold changes relative to vehicle control of NCCCNc1ccc(C(=O)NC(CCC(=O)O)C(=O)O)cc1 (stereo not drawn) is strictly below 1.
Result: false

Ask: Please indicate whether the reported fold changes relative to vehicle control of Nc1nc2c(c(=O)[nH]1)N(C=O)C(CNc1ccc(C(=O)N[C@@H](CCC(=O)O)C(=O)O)cc1)CN2 (stereo partly drawn) is strictly below 1.
Result: true

Ask: Please indicate whether the reported fold changes relative to vehicle control of CCCCCCOc1ccc(Cc2cnc(N)nc2N)cc1 is strictly below 1.
Result: false

Ask: Please indicate whether the reported fold changes relative to vehicle control of NCCOCCOCC(=O)Nc1nc2ncc(CNc3ccc(C(=O)NC(CCC(=O)O)C(=O)O)cc3)nc2c(=O)[nH]1 (stereo not drawn) is strictly below 1.
Result: true

Ask: Please indicate whether the reported fold changes relative to vehicle control of CCCCCCOc1cccc(Cc2cnc(N)nc2N)c1 is strictly below 1.
Result: false

---

# target: HeLa cell extract proteins (Homo sapiens)
# Construct: endogenous in cells; host or cells: HeLa cell extract
# Format: binding
# test.conditions: HeLa; protein CTPS
Field: fold changes relative to vehicle control. Provide a value for each of the molecules that follow.

Ask: Fill in: fold changes relative to vehicle control on HeLa cell extract proteins (Homo sapiens), entry NCCCNc1ccc(C(=O)NC(CCC(=O)O)C(=O)O)cc1 (stereo not drawn) [compound 7]
Result: 0.98

Ask: Fill in: fold changes relative to vehicle control on HeLa cell extract proteins (Homo sapiens), entry CCCCCCOc1ccc(Cc2cnc(N)nc2N)cc1 [compound 1]
Result: 0.99

Ask: Fill in: fold changes relative to vehicle control on HeLa cell extract proteins (Homo sapiens), entry NCCOCCOCC(=O)Nc1nc2ncc(CNc3ccc(C(=O)NC(CCC(=O)O)C(=O)O)cc3)nc2c(=O)[nH]1 (stereo not drawn) [compound 6]
Result: 0.95

Ask: Fill in: fold changes relative to vehicle control on HeLa cell extract proteins (Homo sapiens), entry Nc1nc2cccc(-c3ccccc3)c2n1Cc1ccc(Cl)c(Cl)c1 [compound 3]
Result: 0.95

Ask: Fill in: fold changes relative to vehicle control on HeLa cell extract proteins (Homo sapiens), entry Nc1nc2c(c(=O)[nH]1)N(C=O)C(CNc1ccc(C(=O)N[C@@H](CCC(=O)O)C(=O)O)cc1)CN2 (stereo partly drawn) [LEU, leucovorin]
Result: 0.93

Ask: Fill in: fold changes relative to vehicle control on HeLa cell extract proteins (Homo sapiens), entry CCCCCCOc1cccc(Cc2cnc(N)nc2N)c1 [compound 2]
Result: 1.09

---

# Test system: CHOLINE KINASE (TB427TMP.18.0017)
# assay: Multitargeted bead mixture competition
# Type: binding, T. brucei
# test.conditions: protein TB427TMP.18.0017 CHOLINE KINASE; vehicle control = 1
readout.name: fold change vs vehicle control
The reply should be a number, written without any unit.

Ask: Fill in: fold change vs vehicle control on CHOLINE KINASE (TB427TMP.18.0017), entry NCCCNc1ccc(C(=O)NC(CCC(=O)O)C(=O)O)cc1 (stereo not shown) [compound 7]
Result: 1.16

Ask: Fill in: fold change vs vehicle control on CHOLINE KINASE (TB427TMP.18.0017), entry Nc1nc2[nH]cc(CCc3ccc(C(=O)N[C@@H](CCC(=O)O)C(=O)O)cc3)c2c(=O)[nH]1 [PTX, pemetrexed]
Result: 0.98

Ask: Fill in: fold change vs vehicle control on CHOLINE KINASE (TB427TMP.18.0017), entry Nc1nc2c(c(=O)[nH]1)N(C=O)C(CNc1ccc(C(=O)N[C@@H](CCC(=O)O)C(=O)O)cc1)CN2 (stereo partly shown) [LEU, leucovorin]
Result: 0.95

Ask: Fill in: fold change vs vehicle control on CHOLINE KINASE (TB427TMP.18.0017), entry NCCOCCOCC(=O)Nc1nc2ncc(CNc3ccc(C(=O)NC(CCC(=O)O)C(=O)O)cc3)nc2c(=O)[nH]1 (stereo not shown) [compound 6]
Result: 1.05
